- measurement notes: total protein half-life in vivo (active degradation + dilution); higher = more stable protein
- experimental conditions: wild type E. coli NCM3722; growth: P-lim chemostat; doubling time 6 h
readout: total protein half-life in vivo (h)
Kindly answer with a numeric value in h, unit omitted.

MGKAVIAIHGGAGAISRAQMSLQQELRYIEALSAIVETGQKMLEAGESALDVVTEAVRLLEECPLFNAGIGAVFTRDETHELDACVMDGNTLKAGAVAGVSHLRNPVLAARLVMEQSPHVMMIGEGAENFAFARGMERVSPEIFSTSLRYEQLLAARKEGATVLDHSGAPLDEKQKMGTVGAVALDLDGNLAAATSTGGMTNKLPGRVGDSPLVGAGCYANNASVAVSCTGTGEVFIRALAAYDIAALMDYGGLSLAEACERVVMEKLPALGGSGGLIAIDHEGNVALPFNTEGMYRAWGYAGDTPTTGIYREKGDTVATQ ... 4.75
MNNLPLLNDLRVFMLVARRAGFAAVAEELGVSPAFVSKRIALLEQTLNVVLLHRTTRRVTITEEGERIYEWAQRILQDVGQMMDELSDVRQVPQGMLRIISSFGFGRQVVAPALLALAKAYPQLELRFDVEDRLVDLVNEGVDLDIRIGDDIAPNLIARKLATNYRILCASPEFIAQHGAPKHLTDLSALPCLVIKERDHPFGVWQLRNKEGPHAIKVTGPLSSNHGEIVHQWCLDGQGIALRSWWDVSENIASGHLVQVLPEYYQPANVWAVYVSRLATSAKVRITVEFLRQYFAEHYPNFSLEHA ... 0.535

[ask] Please look at this sequence and report its total protein half-life in vivo: MTWLPLNPIPLKDRVSMIFLQYGQIDVIDGAFVLIDKTGIRTHIPVGSVACIMLEPGTRVSHAAVRLAAQVGTLLVWVGEAGVRVYASGQPGGARSDKLLYQAKLALDEDLRLKVVRKMFELRFGEPAPARRSVEQLRGIEGSRVRATYALLAKQYGVTWNGRRYDPKDWEKGDTINQCISAATSCLYGVTEAAILAAGYAPAIGFVHTGKPLSFVYDIADIIKFDTVVPKAFEIARRNPGEPDREVRLACRDIFRSSKTLAKLIPLIEDVLAAGEIQPPAPPEDAQPVAIPLPVSLGDAGHRSS
[reply] 2.23

[ask] Please look at this sequence and report its total protein half-life in vivo: MSKLFWAMLSFITRLPVPRRWSQGLDFEHYSRGIITFPLIGLLLGAISGLVFMVLQAWCGAPLAALFSVLVLVLMTGGFHLDGLADTCDGVFSARSRDRMLEIMRDSRLGTHGGLALIFVVLAKILVLSELALRGESILASLAAACAVSRGTAALLMYRHRYAREEGLGNVFIGKIDGRQTCVTLGLAAIFAAVLLPGMHGVAAMVVTMVAIFILGQLLKRTLGGQTGDTLGAAIELGELVFLLALL
[reply] 5.6

* * *

- measurement notes: total protein half-life in vivo (active degradation + dilution); higher = more stable protein
- experimental conditions: E. coli NCM3722 delta-clpP; growth: N-lim chemostat; doubling time 6 h
readout: total protein half-life in vivo (h)
Kindly answer with a numeric value in h, unit omitted.

[ask] Please look at this sequence and report its total protein half-life in vivo: MNEFFPLASAAGMTVGLAVCALIVGLALAMFFAVWESAKWRPVAWAGSALVTILRGLPEILVVLFIYFGSSQLLLTLSDGFTINLGFVQIPVQMDIENFDVSPFLCGVIALSLLYAAYASQTLRGALKAVPVGQWESGQALGLSKSAIFFRLVMPQMWRHALPGLGNQWLVLLKDTALVSLISVNDLMLQTKSIATRTQEPFTWYIVAAAIYLVITLLSQYILKRIDLRATRFERRPS [P0AE34]
[reply] 6.25

* * *

- measurement notes: total protein half-life in vivo (active degradation + dilution); higher = more stable protein
- experimental conditions: E. coli NCM3722 delta-clpP; growth: N-lim chemostat; doubling time 6 h
readout: total protein half-life in vivo (h)
Kindly answer with a numeric value in h, unit omitted.

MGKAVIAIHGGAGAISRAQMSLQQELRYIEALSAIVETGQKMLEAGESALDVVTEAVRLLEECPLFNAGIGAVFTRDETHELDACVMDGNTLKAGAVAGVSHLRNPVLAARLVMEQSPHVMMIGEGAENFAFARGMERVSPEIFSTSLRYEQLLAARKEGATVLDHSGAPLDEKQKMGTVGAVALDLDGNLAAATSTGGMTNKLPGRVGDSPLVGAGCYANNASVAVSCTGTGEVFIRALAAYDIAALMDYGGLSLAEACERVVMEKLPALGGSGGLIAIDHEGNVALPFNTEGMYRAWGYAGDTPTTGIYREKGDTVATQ ... 3.77
MNNLPLLNDLRVFMLVARRAGFAAVAEELGVSPAFVSKRIALLEQTLNVVLLHRTTRRVTITEEGERIYEWAQRILQDVGQMMDELSDVRQVPQGMLRIISSFGFGRQVVAPALLALAKAYPQLELRFDVEDRLVDLVNEGVDLDIRIGDDIAPNLIARKLATNYRILCASPEFIAQHGAPKHLTDLSALPCLVIKERDHPFGVWQLRNKEGPHAIKVTGPLSSNHGEIVHQWCLDGQGIALRSWWDVSENIASGHLVQVLPEYYQPANVWAVYVSRLATSAKVRITVEFLRQYFAEHYPNFSLEHA ... 1.82
MMKKFIAPLLALLVSGCQIDPYTHAPTLTSTDWYDVGMEDAISGSAIKDDDAFSDSQADRGLYLKGYAEGQKKTCQTDFTYARGLSGKSFPASCNNVENASQLHEVWQKGADENASTIRLN ... 3.75
MATYLIGDVHGCYDELIALLHKVEFTPGKDTLWLTGDLVARGPGSLDVLRYVKSLGDSVRLVLGNHDLHLLAVFAGISRNKPKDRLTPLLEAPDADELLNWLRRQPLLQIDEEKKLVMAHAGITPQWDLQTAKECARDVEAVLSSDSYPFFLDAMYGDMPNNWSPELRGLGRLRFITNAFTRMRFCFPNGQLDMYSKESPEEAPAPLKPWFAIPGPVAEEYSIAFGHWASLEGKGTPEGIYALDTGCCWGGTLTCLRWEDKQYFVQPSNRHKDLGEAAAS ... 4.2
MNSCDFRVFLQEFGTTVHLSLPGSVSEKERLLLKLLMQGMSVTEISQYRNRSAKTISHQKKQLFEKLGIQSDITFWRDIFFQYNPEIISATGSNSHRYINDNHYHHIVTPEAISLALENHEFKPWIQPVFCAQTGVLTGCEVLVRWEHPQTGIIPPDQFIPLAESSGLIVIMTRQLMKQTADILMPVKHLLPDNFHIGINVSAGCFLAAGFEKECLNLVNKLGNDKIKLVLELTERNPIPVTPEARAIFDSLHQHNITFALDDFGTGYATYRYLQAFPVDFIKIDKSFVQMASVDEISGHIVDNIVELARKPGLSIVAEGVETQEQADLMIGKGVHFLQGYLYSPPVPGNKFISEWVMKAGG ... 5.64

We now examine a further sequence.
[ask] Please look at this sequence and report its total protein half-life in vivo: MAEKRNIFLVGPMGAGKSTIGRQLAQQLNMEFYDSDQEIEKRTGADVGWVFDLEGEEGFRDREEKVINELTEKQGIVLATGGGSVKSRETRNRLSARGVVVYLETTIEKQLARTQRDKKRPLLHVETPPREVLEALANERNPLYEEIADVTIRTDDQSAKVVANQIIHMLESN [P0A6D7]
[reply] 3.45

* * *

Each item that follows carries a reported total protein half-life in vivo.
- measurement notes: total protein half-life in vivo (active degradation + dilution); higher = more stable protein
- experimental conditions: wild type E. coli NCM3722; growth: P-lim chemostat; doubling time 12 h
Kindly answer with a numeric value in h, unit omitted.

Some entries whose results are on file:
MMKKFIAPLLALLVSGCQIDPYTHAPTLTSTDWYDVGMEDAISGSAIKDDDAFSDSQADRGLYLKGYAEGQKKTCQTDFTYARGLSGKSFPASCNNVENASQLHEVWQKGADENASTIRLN ... 10.9
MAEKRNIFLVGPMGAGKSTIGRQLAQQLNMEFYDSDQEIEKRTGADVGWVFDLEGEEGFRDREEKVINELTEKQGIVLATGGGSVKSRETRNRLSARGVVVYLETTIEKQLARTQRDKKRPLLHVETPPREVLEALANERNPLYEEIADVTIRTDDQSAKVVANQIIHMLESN [P0A6D7] ... 4.5
MFPFRRNVLAFAALLALSSPVLAGKLAIVIDDFGYRPHNENQVLAMPSAISVAVLPDSPHAREMATKAHNSGHEVLIHLPMAPLSKQPLEKNTLRPEMSSDEIERIIRSAVNNVPYAVGINNHMGSKMTSNLFGMQKVMQALERYNLYFLDSVTIGNTQAMRAAQGTGVKVIKRKVFLDDSQNEADIRVQFNRAIDLARRNGSTIAIGHPHPATVRVLQQMVYNLPPDITLVKASSLLNEPQVDTSTPPKNAVPDAPRNPFRGVKLCKPKKPIEPVYANRFFEVLSESISQSTLIVYFQHQWQGWGKQPEAAKFNASAN ... 8.02

[ask] Please look at this sequence and report its total protein half-life in vivo: MTLEWWFAYLLTSIILSLSPGSGAINTMTTSLNHGYRGAVASIAGLQTGLAIHIVLVGVGLGTLFSRSVIAFEVLKWAGAAYLIWLGIQQWRAAGAIDLKSLASTQSRRHLFQRAVFVNLTNPKSIVFLAALFPQFIMPQQPQLMQYIVLGVTTIVVDIIVMIGYATLAQRIALWIKGPKQMKALNKIFGSLFMLVGALLASARHA [P0AG34]
[reply] 3.7

[ask] Please look at this sequence and report its total protein half-life in vivo: MNSCDFRVFLQEFGTTVHLSLPGSVSEKERLLLKLLMQGMSVTEISQYRNRSAKTISHQKKQLFEKLGIQSDITFWRDIFFQYNPEIISATGSNSHRYINDNHYHHIVTPEAISLALENHEFKPWIQPVFCAQTGVLTGCEVLVRWEHPQTGIIPPDQFIPLAESSGLIVIMTRQLMKQTADILMPVKHLLPDNFHIGINVSAGCFLAAGFEKECLNLVNKLGNDKIKLVLELTERNPIPVTPEARAIFDSLHQHNITFALDDFGTGYATYRYLQAFPVDFIKIDKSFVQMASVDEISGHIVDNIVELARKPGLSIVAEGVETQEQADLMIGKGVHFLQGYLYSPPVPGNKFISEWVMKAGG
[reply] 12.3

[ask] Please look at this sequence and report its total protein half-life in vivo: MMRIALFLLTNLAVMVVFGLVLSLTGIQSSSVQGLMIMALLFGFGGSFVSLLMSKWMALRSVGGEVIEQPRNERERWLVNTVATQARQAGIAMPQVAIYHAPDINAFATGARRDASLVAVSTGLLQNMSPDEAEAVIAHEISHIANGDMVTMTLIQGVVNTFVIFISRILAQLAAGFMGGNRDEGEESNGNPLIYFAVATVLELVFGILASIITMWFSRHREFHADAGSAKLVGREKMIAALQRLKTSYEPQEATSMMALCINGKSKSLSELFMTHPPLDKRIEALRTGEYLK
[reply] 7.97

[ask] Please look at this sequence and report its total protein half-life in vivo: MSKLFWAMLSFITRLPVPRRWSQGLDFEHYSRGIITFPLIGLLLGAISGLVFMVLQAWCGAPLAALFSVLVLVLMTGGFHLDGLADTCDGVFSARSRDRMLEIMRDSRLGTHGGLALIFVVLAKILVLSELALRGESILASLAAACAVSRGTAALLMYRHRYAREEGLGNVFIGKIDGRQTCVTLGLAAIFAAVLLPGMHGVAAMVVTMVAIFILGQLLKRTLGGQTGDTLGAAIELGELVFLLALL
[reply] 12.4
